test system: Neutrophil; assay: Antiinflammatory activity in human neutrophils assessed as inhibition of fMLP/CB-induced superoxide anion generation after 5 mins by spectrophotometry; assay type: functional, cell-based
Calls of active or inactive are those of the source. No cut-off for these calls is given here.
measured_metric: inhibition

O=C1C=CC[C@@H]([C@@H](O)[C@@H](O)c2ccccc2)O1; inactive
CO[C@@H](c1ccccc1)[C@H](O)[C@@H]1CC=CC(=O)O1; inactive
CO[C@H](c1ccccc1)[C@@H](O)[C@@H]1CC=CC(=O)O1; inactive
O=C1C[C@H]2C[C@H](O1)[C@H](O)[C@@H](c1ccccc1)O2; inactive
O=C1C=CC[C@@H]([C@H](O)[C@@H](O)c2ccccc2)O1; inactive
